# Tested on: K86415-001-R-J1-PDC complex spheroids, viability
# protocol: Anticancer human tumor K86415-001-R-J1-PDC patient-derived lung adenocarcinoma cell line growth inhibition [RAS]
# conditions: second compound 0.0949 µM; first compound 0.316 µM; stronger effect = lower value
Kindly apply the following: satisfied if viability, T/C is less than 4%, not satisfied in every other case.

| molecule | class |
| --- | --- |
| CCC(CC)c1cc(NC2CCC(N)C2)n2nccc2n1 (stereo unspecified) + CCn1c(-c2cc(N3CCN(C)CC3)cnc2C(C)OC)c2c3cc(ccc31)-c1csc(n1)CC(NC(=O)C1CC1C)C(=O)N1CCCC(N1)C(=O)OCC(C)(C)C2 | satisfied |
| CC1(O)CCCC1n1c(=O)c(C(F)F)cc2cnc(NC3CCN(S(C)(=O)=O)CC3)nc21 (stereo unspecified) + CCn1c(-c2cc(N3CCN(C)CC3)cnc2C(C)OC)c2c3cc(ccc31)-c1csc(n1)CC(NC(=O)C1CC1C)C(=O)N1CCCC(N1)C(=O)OCC(C)(C)C2 | not satisfied |
| O=C(c1ccc(F)c(F)c1Nc1ccc(I)cc1F)N1CC(O)([C@@H]2CCCCN2)C1 + CCn1c(-c2cccnc2C(C)OC)c2c3cc(ccc31)N1CCOC(CC(NC(=O)C(C(C)C)N(C)C(=O)C3(F)CCN(C(=O)C#CC(C)(C)N(C)C)CC3)C(=O)N3CCCC(N3)C(=O)OCC(C)(C)C2)C1 | satisfied |
| C=CC(=O)N1CCN(c2nc(OCC3CCCN3C)nc3c(F)c(-c4nc(N)cc(C)c4C(F)(F)F)c(Cl)cc23)C(C)C1 (stereo unspecified) + CCn1c(-c2cccnc2C(C)OC)c2c3cc(ccc31)N1CCOC(CC(NC(=O)C(C(C)C)N(C)C(=O)C3(F)CCN(C(=O)C#CC(C)(C)N(C)C)CC3)C(=O)N3CCCC(N3)C(=O)OCC(C)(C)C2)C1 | not satisfied |
| CC1(O)CCCC1n1c(=O)c(C(F)F)cc2cnc(NC3CCN(S(C)(=O)=O)CC3)nc21 (stereo unspecified) + CCn1c(-c2cccnc2C(C)OC)c2c3cc(ccc31)N1CCOC(CC(NC(=O)C(C(C)C)N(C)C(=O)C3(F)CCN(C(=O)C#CC(C)(C)N(C)C)CC3)C(=O)N3CCCC(N3)C(=O)OCC(C)(C)C2)C1 | not satisfied |

---

# System: K86415-001-R-J1-PDC complex spheroids, viability
# protocol: Anticancer human tumor K86415-001-R-J1-PDC cell line growth inhibition [RAS]; active = viability on the fitted dose curve at most 10% of control; inactive = the rest;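 note: spheroids exposed to agents for seven days before readout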
# conditions: second compound 0.316 µM; first compound 1 µM
Possible outcomes: true (1) = active, false (0) = inactive

| compound | class |
| --- | --- |
| C[C@@H](NC(=O)c1ncnc(N)c1Cl)c1ncc(C(=O)Nc2cc(C(F)(F)F)c(Cl)cn2)s1 + C#Cc1c(F)ccc2cc(O)cc(-c3ncc4c(N5CC6CCC(C5)N6)nc(OCC56CCCN5CC(F)C6)nc4c3F)c12 | false (0) |
| NC1c2ccccc2OC12CCN(c1cnc3c(N4CCCc5ncccc54)n[nH]c3n1)CC2 (stereo not given) + C#Cc1c(F)ccc2cc(O)cc(-c3ncc4c(N5CC6CCC(C5)N6)nc(OCC56CCCN5CC(F)C6)nc4c3F)c12 | true (1) |
| CCC(CC)c1cc(NC2CCC(N)C2)n2nccc2n1 (stereo not given) + C=CC(=O)N1CCN(c2nc(OCC3CCCN3C)nc3c(F)c(-c4nc(N)cc(C)c4C(F)(F)F)c(Cl)cc23)C(C)C1 | true (1) |
| CC(Nc1ccc2c(c1)OCCn1cc(N3C(=O)OCC3C(F)F)nc1-2)C(N)=O (stereo not given) + C=CC(=O)N1CCN(c2nc(OCC3CCCN3C)nc3c(F)c(-c4nc(N)cc(C)c4C(F)(F)F)c(Cl)cc23)C(C)C1 | true (1) |
| CC(C)NCC(C(=O)N1CCN(c2ncnc3c2C(C)CC3O)CC1)c1ccc(Cl)cc1 (stereo not given) + C=CC(=O)N1CCN(c2nc(OCC3CCCN3C)nc3c(F)c(-c4nc(N)cc(C)c4C(F)(F)F)c(Cl)cc23)C(C)C1 | true (1) |
| CC1(O)CCCC1n1c(=O)c(C(F)F)cc2cnc(NC3CCN(S(C)(=O)=O)CC3)nc21 (stereo not given) + C#Cc1c(F)ccc2cc(O)cc(-c3ncc4c(N5CC6CCC(C5)N6)nc(OCC56CCCN5CC(F)C6)nc4c3F)c12 | false (0) |
| CCC(CC)c1cc(NC2CCC(N)C2)n2nccc2n1 (stereo not given) + C#Cc1c(F)ccc2cc(O)cc(-c3ncc4c(N5CC6CCC(C5)N6)nc(OCC56CCCN5CC(F)C6)nc4c3F)c12 | false (0) |
| C=CC(=O)Nc1cc(Nc2nccc(-c3cn(C)c4ccccc34)n2)c(OC)cc1N(C)CCN(C)C + C=CC(=O)N1CCN(c2nc(OCC3CCCN3C)nc3c(F)c(-c4nc(N)cc(C)c4C(F)(F)F)c(Cl)cc23)C(C)C1 | true (1) |
| CC(=O)OC12COC1CC(O)C1(C)C(=O)C(O)C3=C(C)C(OC(=O)C(O)C(NC(=O)OC(C)(C)C)c4ccccc4)CC(O)(C(OC(=O)c4ccccc4)C21)C3(C)C (stereo not given) + C=CC(=O)N1CCN(c2nc(OCC3CCCN3C)nc3c(F)c(-c4nc(N)cc(C)c4C(F)(F)F)c(Cl)cc23)C(C)C1 | true (1) |
| O=C(c1ccc(F)c(F)c1Nc1ccc(I)cc1F)N1CC(O)([C@@H]2CCCCN2)C1 + C#Cc1c(F)ccc2cc(O)cc(-c3ncc4c(N5CC6CCC(C5)N6)nc(OCC56CCCN5CC(F)C6)nc4c3F)c12 | false (0) |

---

# System: K86415-001-R-J1-PDC complex spheroids, viability
# protocol: Anticancer human tumor K86415-001-R-J1-PDC cell line growth inhibition [RAS]; active = viability on the fitted dose curve at most 10% of control; inactive = the rest;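 note: spheroids exposed to agents for seven days before readout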
# conditions: second compound 0.0316 µM; first compound 10 µM
Possible outcomes: 1 = active, 0 = inactive

| compound | class |
| --- | --- |
| CC(=O)OC12COC1CC(O)C1(C)C(=O)C(O)C3=C(C)C(OC(=O)C(O)C(NC(=O)OC(C)(C)C)c4ccccc4)CC(O)(C(OC(=O)c4ccccc4)C21)C3(C)C (stereo not given) + C#Cc1c(F)ccc2cc(O)cc(-c3ncc4c(N5CC6CCC(C5)N6)nc(OCC56CCCN5CC(F)C6)nc4c3F)c12 | 0 |
| CCC(CC)c1cc(NC2CCC(N)C2)n2nccc2n1 (stereo not given) + C#Cc1c(F)ccc2cc(O)cc(-c3ncc4c(N5CC6CCC(C5)N6)nc(OCC56CCCN5CC(F)C6)nc4c3F)c12 | 1 |
| CC(=O)OC12COC1CC(O)C1(C)C(=O)C(O)C3=C(C)C(OC(=O)C(O)C(NC(=O)OC(C)(C)C)c4ccccc4)CC(O)(C(OC(=O)c4ccccc4)C21)C3(C)C (stereo not given) + C=CC(=O)N1CCN(c2nc(OCC3CCCN3C)nc3c(F)c(-c4nc(N)cc(C)c4C(F)(F)F)c(Cl)cc23)C(C)C1 | 1 |
| CC(C)NCC(C(=O)N1CCN(c2ncnc3c2C(C)CC3O)CC1)c1ccc(Cl)cc1 (stereo not given) + C#Cc1c(F)ccc2cc(O)cc(-c3ncc4c(N5CC6CCC(C5)N6)nc(OCC56CCCN5CC(F)C6)nc4c3F)c12 | 0 |
| C[C@@H](NC(=O)c1ncnc(N)c1Cl)c1ncc(C(=O)Nc2cc(C(F)(F)F)c(Cl)cn2)s1 + C=CC(=O)N1CCN(c2nc(OCC3CCCN3C)nc3c(F)c(-c4nc(N)cc(C)c4C(F)(F)F)c(Cl)cc23)C(C)C1 | 0 |

---

# Tested on: K86415-001-R-J1-PDC complex spheroids, viability
# protocol: Anticancer human tumor K86415-001-R-J1-PDC cell line growth inhibition [RAS];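 note: spheroids exposed to agents for seven days before readout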
# conditions: curve of first compound; second compound 0.0949 µM
Let's look at some compounds and their measured IC50.
measured-quantity: IC50

| compound | measured-quantity | readout-value |
| --- | --- | --- |
| O=C(c1ccc(F)c(F)c1Nc1ccc(I)cc1F)N1CC(O)([C@@H]2CCCCN2)C1 + CCn1c(-c2cc(N3CCN(C)CC3)cnc2C(C)OC)c2c3cc(ccc31)-c1csc(n1)CC(NC(=O)C1CC1C)C(=O)N1CCCC(N1)C(=O)OCC(C)(C)C2 | IC50 | < 3.16 nM |
| CCC(CC)c1cc(NC2CCC(N)C2)n2nccc2n1 (centres undefined) + CCn1c(-c2cccnc2C(C)OC)c2c3cc(ccc31)N1CCOC(CC(NC(=O)C(C(C)C)N(C)C(=O)C3(F)CCN(C(=O)C#CC(C)(C)N(C)C)CC3)C(=O)N3CCCC(N3)C(=O)OCC(C)(C)C2)C1 | IC50 | < 31.6 nM |
| CCN1CCN(Cc2ccc(Nc3ncc(F)c(-c4cc(F)c5nc(C)n(C(C)C)c5c4)n3)nc2)CC1 + CCn1c(-c2cc(N3CCN(C)CC3)cnc2C(C)OC)c2c3cc(ccc31)-c1csc(n1)CC(NC(=O)C1CC1C)C(=O)N1CCCC(N1)C(=O)OCC(C)(C)C2 | IC50 | < 3.16 nM |
| C[C@@H](NC(=O)c1ncnc(N)c1Cl)c1ncc(C(=O)Nc2cc(C(F)(F)F)c(Cl)cn2)s1 + CCn1c(-c2cc(N3CCN(C)CC3)cnc2C(C)OC)c2c3cc(ccc31)-c1csc(n1)CC(NC(=O)C1CC1C)C(=O)N1CCCC(N1)C(=O)OCC(C)(C)C2 | IC50 | < 31.6 nM |

Entry source: PubChem BioAssay AID2060893
